Values from paper PMC7859335

Experiment: Cellular cytotoxicity assay (resazurin)
Type: cell-based
Conditions: human

compound | CC50 at 72 h
COc1ccc(C2=NN(C(C)C)C(=O)[C@H]3CC=CC[C@@H]23)cc1Oc1ccc(Cn2ccnc2)cn1 (relative stereo) | 31 µM
CCCCNC(=O)c1cccc(Oc2cc(C3=NN(C(C)C)C(=O)[C@@H]4CC=CC[C@H]34)ccc2OC)n1 (relative stereo) | > 64 µM
COC(=O)c1cnc(Oc2cc(C3=NN(C(C)C)C(=O)[C@@H]4CC=CC[C@H]34)ccc2OC)cn1 (relative stereo) | > 64 µM
COc1ccc(C2=NN(C(C)C)C(=O)[C@@H]3CC=CC[C@H]23)cc1Oc1cccc(C(=O)NCc2ccco2)n1 (relative stereo) | > 64 µM
COc1ccc(C2=NN(C(C)C)C(=O)[C@@H]3CC=CC[C@H]23)cc1Oc1cccc(C(N)=O)n1 (relative stereo) | > 64 µM
COC(=O)c1ccc(Oc2cc(C3=NN(C(C)C)C(=O)[C@@H]4CC=CC[C@H]34)ccc2OC)nc1 (relative stereo) | > 64 µM
